Value source: PubChem BioAssay

experiment-summary: small-molecule microarray binders of probe aCHRDL2, primary screen, biochemical, biotinylated probe, 635/667 nm fluorescence (AID 1100)
experimental-conditions: higher = more signal
parameter: composite z-score
Would you mind answering with just the numeric figure?

C=CCC(OC(C)=O)[C@@H]1[C@@H](N(Cc2ccc(-c3cccc(C(F)(F)F)c3)o2)C(=O)c2ccc(C)cc2)c2cc(OCCCO)ccc2N1C(=O)c1ccc2ccccc2c1 (stereo partly drawn) : 0.155

Give a short answer stating reported composite z-score for C[C@]1(C(=O)NC2CC2)c2ccccc2C(=O)N(Cc2ccccc2)[C@H]1c1ccc(CO)cc1 .
0.951

Give a short answer stating reported composite z-score for C=CCC(OC(C)=O)[C@@H]1[C@@H](N(Cc2cc3ccccc3o2)C(=O)Cc2ccc(F)cc2)c2cc(OCCCO)ccc2N1C(=O)c1ccc2ccccc2c1 (stereo partly drawn) .
0.165

Give a short answer stating reported composite z-score for Cc1ccc(S[C@]2(C(=O)NCC(F)(F)F)CC(=O)N(Cc3ccccc3)[C@@H]2c2ccc(CO)cc2I)cc1 .
0.264
